Just for reference, patent US12083202B2 is where these values come from.

PROTOCOL_DESCRIPTION: UV filters dispersion: dispersibility of a solid UV filter in ester oils
Assay type: physicochemical
Parameters: key: D=homogeneous dispersion; S=sediment deposit
SETTINGS: 10% TiO2, storage 24 hours at 25° C.
Protocol: The dispersibility of a solid UV filter in different ester oils was tested using Titania (TiO2, commercially available as Titanio Biossido Anatasio from A.C.E.F.). Various ratios of filter/ester (1% and 10% TiO2) were prepared under stirring at 70° C. for 30 minutes. The dispersions were then observed after a storage period of 0 hours (t0) and 24 hours (t24) at ambient temperature (25° C.) to check for the formation of any sediment deposit. […]
MEASURED_ATTRIBUTE: Filters dispersion t24 10%

CC(C)CCCCCCOC(=O)CCCCCC(C)C [Isononyl Isononanoate, reference compound]	S
CCCCCCCCC(=O)OCC(COC(=O)CCCCCCCC)OC(=O)CCCCCCCC [Glycerol tripelargonate]	S/D
CCCCCCCCC(=O)OCC(COC(=O)CCCCCCCC)(COC(=O)CCCCCCCC)COC(=O)CCCCCCCC [Pentaerythritol tetrapelargonate]	D
CCCCCCCCC(=O)OCC(C)(C)COC(=O)CCCCCCCC [Neopentyl glycol dipelargonate]	S/D
